These data points were gathered from paper PMC10663500.

- measured-on: T1, mouse programmed cell death protein 1 Fc fusion protein (mPD-1-Fc), mPD-1 C60S (aa 25-167) (Mus musculus, UniProt Q02242, stabilised)
- T1 construct: not cleaved; source: Expi293F, purified (Protein A, SEC; dimeric fraction); not shown: Fc (human), C-terminal, kept
- experiment-summary: SPR; Carterra LSA; Fab from the ammonium sulfate precipitate of the culture supernatant immobilised on a NiHC200M chip; hPD-1 (1-1024 nM) or mPD-1-Fc (4-1024 nM) as analyte, fourfold dilution series, no regeneration; HBS-EP pH 7.4, 25 °C; medians over the spots of a construct, KD = koff/kon
- applied-conditions: one partner purified

>  <binder>
toripalimab Fab H.Y60A (Fab, V domains shown, heavy chain of Sm3 with this change; numbers count from the chain's first residue; as the light chain of Sm3; source: Brevibacillus, culture supernatant (ammonium sulfate precipitate); not shown: 6xHis, C-terminal, kept; 6xHN, C-terminal, kept) VH: QGQLVQSGAEVKKPGASVKVSCKASGYTFTDYEMHWVRQAPIHGLEWIGVIESETGGTAANQKFKGRVTITADKSTSTAYMELSSLRSEDTAVYYCAREGITTVATTYYWYFDVWGQGTTVTVSS VL: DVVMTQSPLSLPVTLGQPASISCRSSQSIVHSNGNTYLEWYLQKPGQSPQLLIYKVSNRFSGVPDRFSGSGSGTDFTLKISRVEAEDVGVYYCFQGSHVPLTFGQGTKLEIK

>  <Kd / nM>
88.2

$$$$
>  <binder>
toripalimab Fab H.Q62A (Fab, V domains shown, heavy chain of Sm3 with this change; numbers count from the chain's first residue; as the light chain of Sm3; source: Brevibacillus, culture supernatant (ammonium sulfate precipitate); not shown: 6xHis, C-terminal, kept; 6xHN, C-terminal, kept) VH: QGQLVQSGAEVKKPGASVKVSCKASGYTFTDYEMHWVRQAPIHGLEWIGVIESETGGTAYNAKFKGRVTITADKSTSTAYMELSSLRSEDTAVYYCAREGITTVATTYYWYFDVWGQGTTVTVSS VL: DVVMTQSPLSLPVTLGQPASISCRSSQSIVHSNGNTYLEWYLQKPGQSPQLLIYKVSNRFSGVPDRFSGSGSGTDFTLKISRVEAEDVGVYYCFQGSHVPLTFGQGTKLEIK

>  <Kd / nM>
153

$$$$
>  <binder>
toripalimab Fab L.P100D (Fab, V domains shown, as the heavy chain of Sm3; light chain of Sm3 with this change; numbers count from the chain's first residue; source: Brevibacillus, culture supernatant (ammonium sulfate precipitate); not shown: 6xHis, C-terminal, kept; 6xHN, C-terminal, kept) VH: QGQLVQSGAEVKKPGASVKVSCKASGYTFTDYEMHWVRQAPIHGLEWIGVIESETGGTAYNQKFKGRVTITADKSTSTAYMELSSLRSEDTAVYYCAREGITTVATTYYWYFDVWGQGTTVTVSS VL: DVVMTQSPLSLPVTLGQPASISCRSSQSIVHSNGNTYLEWYLQKPGQSPQLLIYKVSNRFSGVPDRFSGSGSGTDFTLKISRVEAEDVGVYYCFQGSHVDLTFGQGTKLEIK

>  <Kd / nM>
47.4

$$$$
>  <binder>
toripalimab Fab L.S57A (Fab, V domains shown, as the heavy chain of Sm3; light chain of Sm3 with this change; numbers count from the chain's first residue; source: Brevibacillus, culture supernatant (ammonium sulfate precipitate); not shown: 6xHis, C-terminal, kept; 6xHN, C-terminal, kept) VH: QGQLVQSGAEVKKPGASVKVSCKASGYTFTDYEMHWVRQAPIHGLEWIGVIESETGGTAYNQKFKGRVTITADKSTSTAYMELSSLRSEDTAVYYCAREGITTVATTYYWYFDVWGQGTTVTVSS VL: DVVMTQSPLSLPVTLGQPASISCRSSQSIVHSNGNTYLEWYLQKPGQSPQLLIYKVANRFSGVPDRFSGSGSGTDFTLKISRVEAEDVGVYYCFQGSHVPLTFGQGTKLEIK

>  <Kd / nM>
209

$$$$
>  <binder>
toripalimab Fab L.N33Y (Fab, V domains shown, as the heavy chain of Sm3; light chain of Sm3 with this change; numbers count from the chain's first residue; source: Brevibacillus, culture supernatant (ammonium sulfate precipitate); not shown: 6xHis, C-terminal, kept; 6xHN, C-terminal, kept) VH: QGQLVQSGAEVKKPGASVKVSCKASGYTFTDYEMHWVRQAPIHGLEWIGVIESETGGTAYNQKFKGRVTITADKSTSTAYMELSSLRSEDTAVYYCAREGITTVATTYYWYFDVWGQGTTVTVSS VL: DVVMTQSPLSLPVTLGQPASISCRSSQSIVHSYGNTYLEWYLQKPGQSPQLLIYKVSNRFSGVPDRFSGSGSGTDFTLKISRVEAEDVGVYYCFQGSHVPLTFGQGTKLEIK

>  <Kd / nM>
192

$$$$
